# Procedure Details: 5 day repeat oral dosing PK of AMXT 1501 dicaprate
# Format: in vivo, beagle dogs
# Setup Conditions: both sexes, beagle, dog, plasma, po, 32 mg/kg, 32 mg/kg PO once daily, Day 5, individual animals; read-out: AUC0-t
Measured Parameter: AUC(0-t) (ng·h/mL)

>>> df
                                   compound  reported_measurement
0  CCCCCCCCCCCCCCCC(=O)NCCCC[C@@H](N)C(=O)NCCCNCCCCNCCCN [AMXT 1501 dicaprate]                 16800

====

# Procedure Details: 28-day repeat-dose toxicity study, toxicokinetics of AMXT 1501 dicaprate
# Type: in vivo, beagle dogs
# Setup Conditions: both sexes, beagle, dog, plasma, po, 8 mg/kg/day, 8 mg/kg/day PO, DFMO 200 mg/kg/day, Day 1, M+F combined; read-out: Tmax Median
Measured Parameter: Tmax

>>> print(df.to_string())
                                   compound  measured_parameter  reported_measurement
0  CCCCCCCCCCCCCCCC(=O)NCCCC[C@@H](N)C(=O)NCCCNCCCCNCCCN [AMXT 1501 dicaprate]                Tmax                   9 h

====

# Procedure Details: 28-day repeat-dose toxicity study, toxicokinetics of AMXT 1501 dicaprate
# Assay type: in vivo, beagle dogs
# Setup Conditions: both sexes, beagle, dog, plasma, po, 8 mg/kg/day, 8 mg/kg/day PO, DFMO 200 mg/kg/day, Day 1, M+F combined; read-out: AUC0-24 hr Median
Measured Parameter: AUC(0-t) (ng·h/mL)

                                   compound  reported_measurement
0  CCCCCCCCCCCCCCCC(=O)NCCCC[C@@H](N)C(=O)NCCCNCCCCNCCCN [AMXT 1501 dicaprate]                  1390

====

# Procedure Details: 28-day repeat-dose toxicity study, toxicokinetics of AMXT 1501 dicaprate
# Type: in vivo, beagle dogs
# Setup Conditions: both sexes, beagle, dog, plasma, po, 8 mg/kg/day, 8 mg/kg/day PO, DFMO 200 mg/kg/day, Day 1, M+F combined; read-out: Tmax Mean
# Procedure: AMXT 1501 PK parameters were calculated for all AMXT 1501 dicaprate-dosed animals for the first dose (Day 1) and last dose (Day 28).
Measured Parameter: Tmax (h)

                                   compound  unit_tag  reported_measurement
0  CCCCCCCCCCCCCCCC(=O)NCCCC[C@@H](N)C(=O)NCCCNCCCCNCCCN [AMXT 1501 dicaprate]         h                     9

====

# Procedure Details: 28-day repeat-dose toxicity study, toxicokinetics of AMXT 1501 dicaprate
# Type: in vivo, beagle dogs
# Setup Conditions: both sexes, beagle, dog, plasma, po, 8 mg/kg/day, 8 mg/kg/day PO, DFMO 50 mg/kg/day, Day 28, M+F combined; read-out: Cmax Median
Measured Parameter: Cmax (ng/mL)

>>> df
                                   compound  reported_measurement
0  CCCCCCCCCCCCCCCC(=O)NCCCC[C@@H](N)C(=O)NCCCNCCCCNCCCN [AMXT 1501 dicaprate]                   171
